src = patent US10457703B2

Listed here are compounds together with their documented pEC50.
- assay-system: human FXR (NR1H4) (Homo sapiens (Human), UniProt Q96RI1)
- Sequence (Q96RI1 whole entry, the tested form may be a part): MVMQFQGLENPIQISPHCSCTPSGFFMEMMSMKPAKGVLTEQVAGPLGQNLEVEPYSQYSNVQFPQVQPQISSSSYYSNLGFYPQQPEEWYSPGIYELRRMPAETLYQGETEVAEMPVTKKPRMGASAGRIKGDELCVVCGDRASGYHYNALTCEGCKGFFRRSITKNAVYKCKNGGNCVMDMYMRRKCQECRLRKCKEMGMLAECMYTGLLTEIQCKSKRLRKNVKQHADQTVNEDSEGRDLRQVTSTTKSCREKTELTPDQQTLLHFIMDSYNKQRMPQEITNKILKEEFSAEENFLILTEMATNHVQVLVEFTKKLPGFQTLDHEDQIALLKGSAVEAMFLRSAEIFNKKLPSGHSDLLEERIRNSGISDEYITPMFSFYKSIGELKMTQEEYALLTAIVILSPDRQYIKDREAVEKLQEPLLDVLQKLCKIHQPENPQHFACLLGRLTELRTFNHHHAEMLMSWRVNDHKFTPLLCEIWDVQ
- protocol-text: Human FXR (NR1H4) Assay (Gal4 promoter driven luciferase reporter, Indigo Bioscience kit)
- recorded-conditions: Human FXR (NR1H4) Assay, potency ranges
- Experimental: ASSAYS Human FXR (NR1H4) Assay Determination of a ligand mediated Gal4 promoter driven transactivation to quantify ligand binding mediated activation of FXR. […] The principle application of this reporter assay system is to quantify functional activity of human FXR. […] Luminescence intensity of the reaction is quantified using a plate-reading luminometer, Envision. […] Cells were incubated for additional 22 hours before luciferase activities were measured. […] Read time may be 0.5 second (500 mSec) per well.
pEC50: −log10 of the molar value.

[
  {
    "compound": "CC[C@H]1[C@@H](O)[C@@H]2[C@H](CC[C@]3(C)[C@@H]([C@H](C)CCOC(=O)N4CC[C@H](CO)C4)CC[C@@H]23)[C@@]2(C)CC[C@@H](O)C[C@@H]12",
    "assay-system": "human FXR (NR1H4) (Homo sapiens (Human), UniProt Q96RI1)",
    "pEC50": "> 7.00"
  },
  {
    "compound": "CC[C@H]1[C@@H](O)[C@@H]2[C@H](CC[C@]3(C)[C@@H]([C@H](C)CCOC(=O)NS(=O)(=O)c4ccncc4)CC[C@@H]23)[C@@]2(C)CC[C@@H](O)C[C@@H]12",
    "assay-system": "human FXR (NR1H4) (Homo sapiens (Human), UniProt Q96RI1)",
    "pEC50": "5.00 to 6.00"
  },
  {
    "compound": "CC[C@H]1[C@@H](O)[C@@H]2[C@H](CC[C@]3(C)[C@@H]([C@H](C)CCOC(=O)NS(=O)(=O)C[C@]45CCC(CC4=O)C5(C)C)CC[C@@H]23)[C@@]2(C)CC[C@@H](O)C[C@@H]12",
    "assay-system": "human FXR (NR1H4) (Homo sapiens (Human), UniProt Q96RI1)",
    "pEC50": "> 7.00"
  },
  {
    "compound": "CC[C@H]1[C@@H](O)[C@@H]2[C@H](CC[C@]3(C)[C@@H]([C@H](C)CCOC(=O)N4CCC(CO)(CO)CC4)CC[C@@H]23)[C@@]2(C)CC[C@@H](O)C[C@@H]12",
    "assay-system": "human FXR (NR1H4) (Homo sapiens (Human), UniProt Q96RI1)",
    "pEC50": "> 7.00"
  },
  {
    "compound": "CC[C@H]1[C@@H](O)[C@@H]2[C@H](CC[C@]3(C)[C@@H]([C@H](C)COC(=O)NS(=O)(=O)c4ccc(OC(C)(C)C)cc4)CC[C@@H]23)[C@@]2(C)CC[C@@H](O)C[C@@H]12",
    "assay-system": "human FXR (NR1H4) (Homo sapiens (Human), UniProt Q96RI1)",
    "pEC50": "> 7.00"
  },
  {
    "compound": "CC[C@H]1[C@@H](O)[C@@H]2[C@H](CC[C@]3(C)[C@@H]([C@H](C)CCOC(=O)N[C@@H](C)C4CC4)CC[C@@H]23)[C@@]2(C)CC[C@@H](O)C[C@@H]12",
    "assay-system": "human FXR (NR1H4) (Homo sapiens (Human), UniProt Q96RI1)",
    "pEC50": "6.00 to 7.00"
  },
  {
    "compound": "CC[C@H]1[C@@H](O)[C@@H]2[C@H](CC[C@]3(C)[C@@H]([C@H](C)CCOC(=O)NS(=O)(=O)c4ncccn4)CC[C@@H]23)[C@@]2(C)CC[C@@H](O)C[C@@H]12",
    "assay-system": "human FXR (NR1H4) (Homo sapiens (Human), UniProt Q96RI1)",
    "pEC50": "5.00 to 6.00"
  },
  {
    "compound": "CC[C@H]1[C@@H](O)[C@@H]2[C@H](CC[C@]3(C)[C@@H]([C@H](C)CCOC(=O)NCC(C)C)CC[C@@H]23)[C@@]2(C)CC[C@@H](O)C[C@@H]12",
    "assay-system": "human FXR (NR1H4) (Homo sapiens (Human), UniProt Q96RI1)",
    "pEC50": "6.00 to 7.00"
  },
  {
    "compound": "CC[C@H]1[C@@H](O)[C@@H]2[C@H](CC[C@]3(C)[C@@H]([C@H](C)CCOC(=O)N4CCCC4c4cccc(Cl)c4)CC[C@@H]23)[C@@]2(C)CC[C@@H](O)C[C@@H]12 (stereo partly drawn)",
    "assay-system": "human FXR (NR1H4) (Homo sapiens (Human), UniProt Q96RI1)",
    "pEC50": "5.00 to 6.00"
  },
  {
    "compound": "CC[C@H]1[C@@H](O)[C@@H]2[C@H](CC[C@]3(C)[C@@H]([C@H](C)CCOC(=O)N4CCCCS4(=O)=O)CC[C@@H]23)[C@@]2(C)CC[C@@H](O)C[C@@H]12",
    "assay-system": "human FXR (NR1H4) (Homo sapiens (Human), UniProt Q96RI1)",
    "pEC50": "6.00 to 7.00"
  },
  {
    "compound": "CC[C@H]1[C@@H](O)[C@@H]2[C@H](CC[C@]3(C)[C@@H]([C@H](C)CCOC(=O)NS(=O)(=O)c4ccc5c(c4)CCC5)CC[C@@H]23)[C@@]2(C)CC[C@@H](O)C[C@@H]12",
    "assay-system": "human FXR (NR1H4) (Homo sapiens (Human), UniProt Q96RI1)",
    "pEC50": "> 7.00"
  },
  {
    "compound": "CC[C@H]1[C@@H](O)[C@@H]2[C@H](CC[C@]3(C)[C@@H]([C@H](C)CCOC(=O)NCCc4ccc(OC)c(OC)c4)CC[C@@H]23)[C@@]2(C)CC[C@@H](O)C[C@@H]12",
    "assay-system": "human FXR (NR1H4) (Homo sapiens (Human), UniProt Q96RI1)",
    "pEC50": "6.00 to 7.00"
  },
  {
    "compound": "CC[C@H]1[C@@H](O)[C@@H]2[C@H](CC[C@]3(C)[C@@H]([C@H](C)CCCOC(=O)NS(=O)(=O)N4CCCC4)CC[C@@H]23)[C@@]2(C)CC[C@@H](O)C[C@@H]12",
    "assay-system": "human FXR (NR1H4) (Homo sapiens (Human), UniProt Q96RI1)",
    "pEC50": "5.00 to 6.00"
  },
  {
    "compound": "CC[C@H]1[C@@H](O)[C@@H]2[C@H](CC[C@]3(C)[C@@H]([C@H](C)COC(=O)NS(=O)(=O)c4ccc(-n5ccnc5)nc4)CC[C@@H]23)[C@@]2(C)CC[C@@H](O)C[C@@H]12",
    "assay-system": "human FXR (NR1H4) (Homo sapiens (Human), UniProt Q96RI1)",
    "pEC50": "> 7.00"
  },
  {
    "compound": "CC[C@H]1[C@@H](O)[C@@H]2[C@H](CC[C@]3(C)[C@@H]([C@H](C)CCOC(=O)Nc4ccc(C(C)(C)C)cc4)CC[C@@H]23)[C@@]2(C)CC[C@@H](O)C[C@@H]12",
    "assay-system": "human FXR (NR1H4) (Homo sapiens (Human), UniProt Q96RI1)",
    "pEC50": "5.00 to 6.00"
  },
  {
    "compound": "CC[C@H]1[C@@H](O)[C@@H]2[C@H](CC[C@]3(C)[C@@H]([C@H](C)CCCOC(=O)NCc4ccccc4)CC[C@@H]23)[C@@]2(C)CC[C@@H](O)C[C@@H]12",
    "assay-system": "human FXR (NR1H4) (Homo sapiens (Human), UniProt Q96RI1)",
    "pEC50": "6.00 to 7.00"
  },
  {
    "compound": "CC[C@H]1[C@@H](O)[C@@H]2[C@H](CC[C@]3(C)[C@@H]([C@H](C)CCOC(=O)NS(=O)(=O)c4ccc5c(c4)CCCC5)CC[C@@H]23)[C@@]2(C)CC[C@@H](O)C[C@@H]12",
    "assay-system": "human FXR (NR1H4) (Homo sapiens (Human), UniProt Q96RI1)",
    "pEC50": "> 7.00"
  },
  {
    "compound": "CC[C@H]1[C@@H](O)[C@@H]2[C@H](CC[C@]3(C)[C@@H]([C@H](C)CCOC(=O)Nc4ccccc4)CC[C@@H]23)[C@@]2(C)CC[C@@H](O)C[C@@H]12",
    "assay-system": "human FXR (NR1H4) (Homo sapiens (Human), UniProt Q96RI1)",
    "pEC50": "5.00 to 6.00"
  }
]
